Numbers sourced from patent US20190284293A1.

% Rmax hCD64 for assorted molecules
biological target: CD64 (FcgRI) (Homo sapiens, UniProt P12314); assay: SPR, antibody binding to anti-his Fab captured FcgR-his (% Rmax); details: 1 μM antibody
Sequence (P12314 16-374): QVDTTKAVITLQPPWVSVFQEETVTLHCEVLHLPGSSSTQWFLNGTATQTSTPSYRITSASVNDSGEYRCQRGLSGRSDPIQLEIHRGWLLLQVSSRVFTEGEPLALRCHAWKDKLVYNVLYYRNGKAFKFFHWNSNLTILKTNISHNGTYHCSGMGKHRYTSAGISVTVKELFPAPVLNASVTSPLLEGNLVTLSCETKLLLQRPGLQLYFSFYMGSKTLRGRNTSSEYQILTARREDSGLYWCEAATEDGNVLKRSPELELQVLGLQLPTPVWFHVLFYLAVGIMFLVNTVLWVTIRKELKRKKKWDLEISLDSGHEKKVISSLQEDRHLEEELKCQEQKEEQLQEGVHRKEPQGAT
quantity kind: % Rmax hCD64 (%)

>>> reported_measurement("mAb4-IgG2.5 (protein, left off: another chain or arm of the molecule) constant: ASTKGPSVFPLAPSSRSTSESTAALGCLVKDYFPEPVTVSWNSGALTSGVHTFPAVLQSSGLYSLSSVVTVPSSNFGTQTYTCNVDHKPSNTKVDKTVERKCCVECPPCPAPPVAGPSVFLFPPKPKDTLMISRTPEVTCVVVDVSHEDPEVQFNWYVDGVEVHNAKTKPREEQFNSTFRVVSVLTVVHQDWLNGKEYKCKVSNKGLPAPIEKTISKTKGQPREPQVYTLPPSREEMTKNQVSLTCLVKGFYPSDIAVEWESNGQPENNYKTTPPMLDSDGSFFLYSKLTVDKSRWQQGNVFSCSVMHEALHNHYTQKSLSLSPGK")
2
>>> reported_measurement("mAb13-IgG2.3 (protein, left off: another chain or arm of the molecule) constant: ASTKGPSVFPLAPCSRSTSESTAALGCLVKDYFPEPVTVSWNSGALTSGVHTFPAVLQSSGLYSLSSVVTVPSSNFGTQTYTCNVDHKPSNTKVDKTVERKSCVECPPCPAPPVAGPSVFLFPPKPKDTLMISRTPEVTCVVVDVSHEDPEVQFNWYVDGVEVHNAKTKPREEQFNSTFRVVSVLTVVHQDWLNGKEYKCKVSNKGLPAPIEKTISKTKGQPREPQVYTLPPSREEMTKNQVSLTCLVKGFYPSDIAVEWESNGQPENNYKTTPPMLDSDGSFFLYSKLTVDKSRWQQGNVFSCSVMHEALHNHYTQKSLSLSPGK")
2
